# System: c-Abl (mouse);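 also: frequency after pTyr selection over input frequency; kinase dosed for 20-30% of maximal phosphorylation in three min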
# assay.remarks: phosphorylation enrichment, bacterial display (enrichment ratio); higher = better substrate or ligand; peptides without Tyr show the background
Listing of recorded phosphorylation enrichment by entry.
reported.property: phosphorylation enrichment

ASLLPYFPAIM [IPO4_Y518]; 0.626
TNEFEYDELIV [TGM1_Y136_D132N_YF]; 0.951
KGERGYPGTLG [COL4A1_Y348_P352L]; 0.398
APTSGYQEFVH [IL4R_Y575]; 0.524
TDKLFYIYTPG [SLC27A4_Y243_S247P]; 0.673
TTKVSYRASQP [MKI67_Y1737]; 0.638
SHGKQYRVPSD [HHIPL2_Y395_R394Q]; 0.512

----------
Listing of recorded SH2 binding enrichment by entry.
# target.entity: SHP2-C SH2
# assay.remarks: SH2 binding enrichment of the phosphorylated peptide, bacterial display (enrichment ratio); higher = better substrate or ligand; peptides without Tyr show the background
reported.property: SH2 binding enrichment

NFATLYLKIFH [PDE6B_Y219_YF]; 1.1
RCFVFYFSFLL [PTEN_Y177_R173C_YF]; 1.78
YPKARYRWLVL [APTX_Y214_H215R]; 1.02
YEREQYADRTR [RBM4_Y355_A359T]; 0.717
GIADDYDKKKP [EIF1_Y54_L59P]; 0.614
IDNKMYDPKMN [ENPP1_Y280]; 0.623
KHGGNYVPAPK [OSCP1_Y237]; 1.19
FGLDRYQCDCT [PTGS1_Y54]; 0.849
HRTLVYGGIFL [FBP1_Y259]; 0.493
FFRKFYNKSED [RYR1_Y4864]; 0.613
KYWREYILSLE [GPC3_Y299]; 1.71
REIIAYQPFGK [PRKCG_Y529_P524R_YF]; 0.951
RELGEYGLQAY [ALDH2_Y497]; 0.749
TENAGYYFRVS; 0.897
PYTDPYYDYEI [ZC3H18_Y371_A368T]; 0.591
KVALLYKPFFF [POLE_Y100_P99L_YF]; 1.62
KKHIPYRQHKS [CSNK1G2_Y206_E208Q]; 1.84
ELETLYKKAVK [CC2D2A_Y381]; 0.589
RENGPYYASYP [GDAP2_Y487_T489A]; 1.13
MSFDRYMAVCH [OR2A5_Y123_I126V_YF]; 0.684
ARKCKYFKKHE [NFIX_Y40_R38C]; 0.847
KLLRLYAVVTR [LYN_Y306_V303L]; 2.42
KASRKYYAMKI [AKT3_Y173_G171R]; 0.79
WGLCSYYETSK [MAGED2_Y448_R446C]; 0.526
YRKNIYNVKST [SYNE2_Y575]; 0.581
YVPSNYVAEDR [FRK_Y104_I100V]; 0.738
FSGDFYRIQGR [DDR2_Y741_YF]; 0.594
KFVKMCDNHQL [MYO9A_Y203_Y203C_YF]; 0.795
GLGGGYGGASG [KRT8_Y54]; 0.62
YTGSTYRVGDT [FN1_Y106_N104S]; 0.902
QNVADYMRYLM [RPL5_Y207]; 1.02
HKLSSYEYDFE [BTK_Y40_Y39S]; 0.411
KLKRSYSSPDI [USP8_Y717]; 0.649
KEELAYLKKNH [KRT14_Y248]; 0.761
ILTLKYLIEHG [ACTG1_Y69_P70L]; 1.03
RGYRVCYTPDS [PTPRF_Y450_Y450C]; 0.687
ACEVLYNIAFM [NCF2_Y125]; 0.592
DPHQQYFIAMD [TBX15_Y159_YF]; 0.71
IRYPPYTDWNQ [ALDH3B2_Y365_H361R]; 0.76
FDDIAHIRKTL [PIK3CA_Y1021_Y1021H]; 0.566
GSIQQYIFKQE [PRG4_Y1271_YF]; 0.469
THPFLYLTLEI [MLH1_Y293_S295T]; 0.688
TIQDAYMHITS [ADCY10_Y318_A313T]; 0.895
SHMVNYQPFRK [TEX37_Y25_D24N_YF]; 0.732
LHVKMYNFLRS [ADGRG7_Y760_R756H]; 1.07
PRAEWYRDDVL [MYOM2_Y317]; 0.637
LQTFHYHGHSM [PDHA1_Y289_R288H_YF]; 1.47
DAAEDYAEGVR [DHODH_Y194]; 0.63
YGSSSSGGAGG [RPA2_Y14_Y14S]; 0.612
GTVRDYPDFNP [ANXA3_Y15_S19N]; 0.609
PLGVLYKVKVF [PTS_Y128_V124L_YF]; 0.896
TQRPYYKGGGG [TYROBP_Y112]; 0.765
QELRRYLESGV [MICA_Y194_K196E]; 0.596
FIAVGYVDDTQ [HLA-A_Y51]; 0.967
DLDATYRPMFS [JUP_Y701_M697L_YF]; 0.713
SSEYHYVGGFY [CTSC_Y347]; 4.12
SLAARYYNWVC [FLT4_Y1230_S1235C]; 1.21
FETSHYPASPD [CTNND2_Y1217_YF]; 0.992

----------
# target.entity: SHP2-C SH2;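 also: peptide library displayed on the E. coli surface as eCPX fusions, selected cells deep-sequenced, score is each peptide's frequency after selection divided by its frequency in the input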
# assay.remarks: SH2 binding enrichment of the phosphorylated peptide, bacterial display (enrichment ratio); higher = better substrate or ligand; peptides without Tyr show the background
reported.property: SH2 binding enrichment

SVVVHYEPPEV [TP53_Y220_P219H]; 0.757
FLKDVYVDSKD [NDUFAF4_Y69]; 0.749
YNDSTYNQQLI [ZPLD1_Y198]; 0.371
EALDFYGEVKT [PTEN_Y155_R159K]; 0.757
LRVGFYESDVM [A2M_Y708]; 1.02
PIAPVYAASMV [ACAT1_Y331]; 0.699
LYDPDFMKVIL [CYP4A22_Y104_Y104F]; 0.634
IVGLLYRLLTE [SETX_Y1978]; 1.37
DFTEAYNSKIK [CLK1_Y305_P307S_YF]; 0.613
ADCRYYAFPQM [GAMT_Y223]; 0.656
FMGVEYSSCDT [EPHA3_Y937_T933M]; 0.588
ASTDYYKRGDF [PDHA1_Y243]; 0.753
LDAFIYDAALL [GRIN2A_Y730_V734L]; 0.546
TSNNPYFRDQA [RPGRIP1_Y846_A841T]; 0.844

----------
Listing of recorded phosphorylation enrichment by entry.
# System: c-Abl (mouse);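 also: 11-residue human phosphosite peptides and single-mutation variants displayed on the E. coli surface, counted by deep sequencing, each peptide's frequency after selection divided by its frequency in the unselected input library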;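 also: frequency after pTyr selection over input frequency; kinase dosed for 20-30% of maximal phosphorylation in three min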
# assay.remarks: phosphorylation enrichment, bacterial display (enrichment ratio); higher = better substrate or ligand; peptides without Tyr show the background
reported.property: phosphorylation enrichment

NTTIHYNYMCN [TP53_Y234_C229N]; 0.707
FLEEEYVKAVG [TF_Y674_G671E_YF]; 0.679
FIAVGYVDDTQ [HLA-A_Y51]; 0.668
DSDTDYGSGYP [RNASEH2A_Y206_L202S]; 1.01
IRSGIYYKPES [L2HGDH_Y102_H98R]; 8.79
PMWHPYKADVT [TP53TG5_Y255_V257A]; 0.94
GSCQEYTGAPF [NAXD_Y85_G81S_YF]; 0.638
YYHCTYKKRMI [CLEC12A_Y242]; 0.994
HYECKYVINAI [MAOA_Y268]; 0.86
SSLEDYVRETN [GIMAP6_Y176_G171S]; 0.721
QGQHWYSSSDK [CASP10_Y9]; 0.697
GSRGKYSSGFH [ATM_Y332_R337H]; 0.579
IENPQYFSDAC [NTRK1_Y496]; 1.01
LHAALYKRKLL [TTLL5_Y542_E543K]; 1.24
IFKAAYFGVFD [SLC25A4_Y191_R188K_YF]; 0.773
LNTFHHAGVSA [POLR2A_Y1109_Y1109H]; 1.36
GEPLSYTRFSL [TFRC_Y20]; 1
SILAVYSKDNF [PANK2_Y400_YF]; 0.522
DGLASYLDKVR [KRT12_Y139_R135G]; 0.685
IVEFAYNDKAV [PUM3_Y259_I264V_YF]; 0.705
EQLRAYLEGLC [HLA-C_Y183_T187L]; 1.13
DTCPPYVLSQG [GJB4_Y237]; 1.07
PMDTYYDSTRG [DYNC2H1_Y2231]; 1.15
AEKPKYQISNI [TJP1_Y1602_N1605S]; 0.54
VECHPYFTQPK [AKR1D1_Y199]; 0.617
YVPSNYVAEDR [FRK_Y104_I100V]; 0.584
GRSTCYWPRPR [GAGE12J_Y10_Y9C]; 0.697
RDMMDYMPQGV [CYP21A2_Y259_L261P]; 0.912
SHGQDYLVGNK [GSTA1_Y147]; 0.62
